# System: HL-60(TB) leukemia
# assay: NCI tumour cell line growth inhibition, 48 h; in the data active = GI50 below about 0.43 µM; inactive = the rest
Returns: one label drawn from True for active, False for inactive

Problem: For this molecule, state the assay outcome: COc1cc(-c2csc(NC(=O)Nc3cc(Cl)cc(Cl)c3)n2)cc(OC)c1OC
Solution: False

Problem: Any idea what this test logged for C=CC(COC(c1ccccc1)(c1ccccc1)c1ccccc1)N(CC)CC (centres undefined) ?
Solution: False

Problem: Test call, this molecule: Cc1cc(C(=O)c2ccccc2)c(C)c2c1[nH]c1ccc(Cl)cc12
Solution: True

Problem: What was the test verdict on CC(=O)c1cc(O)c2ccccc2c1O ?
Solution: False

Problem: So what was the verdict on O=C1OCC2=C1C(c1ccccc1)c1cc3c(cc1N2CCO)OCCO3 (centres undefined) in this test?
Solution: True

Problem: Which outcome was entered for the molecule CCN(c1cc(C#CCN2CCOCC2)cc(C(=O)NCc2c(C)cc(C)[nH]c2=O)c1C)C1CCC(N(C)CCOC)CC1 (centres undefined) in this test?
Solution: False

Problem: Please state the recorded outcome for this molecule: CC(=O)[CH-]C(=O)c1ccccc1.CC(=O)[CH-]C(=O)c1ccccc1.CC[O-].O=C1c2ccccc2C(=O)c2c1ccc(O)c2[O-].[Ti+4]
Solution: False

Problem: What is the recorded call for this molecule in the test? O=c1oc2c(C(F)(F)F)cccc2cc1-c1csc(Nc2ccc(OCCF)cc2)n1
Solution: True

Problem: # lookup: test call for C[C@@H]1COCCN1c1cc(C2(O)C[C@H]3CC[C@@H](C2)O3)c2cnn(-c3ccn[nH]3)c2n1 (some centres undefined)
Solution: True

Problem: So what was the verdict on N=C(N)c1ccc(-c2ccc(-c3ccc(Cl)c(Cl)c3)s2)nc1 in this test?
Solution: False

Problem: Just curious, what result did CCN(Cc1c(Cl)cccc1Cl)c1ccc(CO)c(Cl)c1 get here?
Solution: False

Problem: Per the records of this test, what outcome belongs to CC(=O)[O-].O=C([CH-]C(=O)c1ccccc1)c1ccccc1.O=C([CH-]C(=O)c1ccccc1)c1ccccc1.[Sm+3] ?
Solution: False

Problem: For O=C(c1ccccc1)c1c(C(F)(F)F)n([O-])c2ccc(C(F)(F)F)cc2[n+]1=O , which call appears in the assay record?
Solution: True

Problem: For CN(C)/N=N/c1nc[nH]c1C(N)=O , which call appears in the assay record?
Solution: False

Problem: What did this assay record as the result for Cc1ccc([C@]2(C)CC[C@H](C)/C2=C\Br)c(O)c1 ?
Solution: False

Problem: What outcome does the record of this test show for Cc1cc(Nc2cc(N)ncn2)c(=O)n2c1C(=O)NC21CCCCC1 ?
Solution: False

Problem: What call does the record list for CCCCCCCCCCCCCCCC1=NC(C)(C)CN1C(C)C ?
Solution: False

Problem: Outcome? COc1cc2c3c(n(C)c(=O)c2cc1OC)-c1cc2c(cc1/C3=C\CCNCCCN)OCO2
Solution: False

Problem: How was COc1cccc2c1n([O-])c1cccc(OC)c1[n+]2=O classified in this test?
Solution: False

====

# Tested on: SF-539 CNS
# assay: NCI tumour cell line growth inhibition, 48 h
endpoint: GI50

INSERT INTO results (compound, endpoint, experimental_value) VALUES
  ('Cc1ccc([C@]2(C)CC[C@H](C)/C2=C\Br)c(O)c1', 'GI50', '1.85 µM'),
  ('O=C(NC(=S)Nc1cc(Cl)ccc1O)c1cccc(Br)c1', 'GI50', '7.58 µM'),
  ('CC(O)c1cc(C(=O)N[C@@H](C)Cn2ccc(-c3ccc(C#N)c(Cl)c3)n2)n[nH]1 (stereo not given in full)', 'GI50', '> 100 µM'),
  ('C=C(C(=O)O[C@H]1C(=O)C2=C(C)CCC3C(=C)C(=O)O[C@@H]3C2[C@]1(C)O)C1CC[C@]2(C)CCCC(=C)[C@H]2C1 (stereo not given in full)', 'GI50', '7.16 µM');

Problem: Consider the compound Cc1cc(I)cc(CN(C)CCCN2CCN(C)CC2)c1O and give its measured GI50.
Solution: 16 µM

Cited source for all entries: PubChem BioAssay (NCI)
